The molecules listed here are annotated with their EC50.
# studyTarget: human recombinant mGluR5 (Homo sapiens)
# Construct: cultured with tetracycline, hygromycin and geneticin; tetracycline withdrawn 3-7 days before the assay
# Sequence (P41594 21-1212): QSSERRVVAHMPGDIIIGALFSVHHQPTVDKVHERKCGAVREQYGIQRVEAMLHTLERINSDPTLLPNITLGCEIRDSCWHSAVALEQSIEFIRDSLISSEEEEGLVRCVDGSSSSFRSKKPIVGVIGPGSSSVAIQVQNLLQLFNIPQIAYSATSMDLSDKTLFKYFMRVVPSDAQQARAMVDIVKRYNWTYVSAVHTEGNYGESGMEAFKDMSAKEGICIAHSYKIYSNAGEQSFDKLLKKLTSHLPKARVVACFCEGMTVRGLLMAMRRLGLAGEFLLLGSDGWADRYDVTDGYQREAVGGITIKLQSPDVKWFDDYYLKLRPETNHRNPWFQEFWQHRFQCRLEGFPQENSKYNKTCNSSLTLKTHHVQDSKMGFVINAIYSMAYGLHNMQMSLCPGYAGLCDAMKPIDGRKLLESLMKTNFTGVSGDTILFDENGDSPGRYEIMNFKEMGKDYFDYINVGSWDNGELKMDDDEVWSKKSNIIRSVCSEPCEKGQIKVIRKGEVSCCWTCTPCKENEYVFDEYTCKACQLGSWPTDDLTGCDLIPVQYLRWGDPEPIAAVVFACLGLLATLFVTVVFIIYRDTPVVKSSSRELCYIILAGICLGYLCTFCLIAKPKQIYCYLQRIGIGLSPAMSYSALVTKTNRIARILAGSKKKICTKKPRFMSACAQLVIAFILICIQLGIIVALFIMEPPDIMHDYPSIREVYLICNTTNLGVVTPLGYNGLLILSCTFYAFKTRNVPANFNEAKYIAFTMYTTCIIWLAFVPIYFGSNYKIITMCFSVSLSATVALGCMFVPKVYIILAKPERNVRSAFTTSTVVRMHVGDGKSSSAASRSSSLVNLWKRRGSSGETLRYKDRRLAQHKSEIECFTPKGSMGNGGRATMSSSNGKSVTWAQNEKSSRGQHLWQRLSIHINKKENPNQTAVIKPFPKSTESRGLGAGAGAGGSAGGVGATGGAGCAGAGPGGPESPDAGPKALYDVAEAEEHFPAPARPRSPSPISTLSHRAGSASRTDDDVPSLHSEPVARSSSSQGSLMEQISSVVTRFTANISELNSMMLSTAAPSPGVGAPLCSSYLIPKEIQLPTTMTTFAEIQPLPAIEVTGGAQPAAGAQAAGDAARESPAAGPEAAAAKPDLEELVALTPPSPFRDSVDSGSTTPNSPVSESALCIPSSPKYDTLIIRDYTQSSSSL
# measurementProtocol: positive modulation of mGluR5, calcium based FLIPR assay in HEK 293 cells
# measurementContext: HEK 293 cell line expressing human recombinant mGluR5; peak height of Ca release fluorescence signal after glutamate at approximately 5% basal stimulation; nonlinear regression
# Procedure: The positive modulation of mGluR5 is measured in a HEK 293 cell line expressing human recombinant mGluR5 and is detected with calcium based FLIPR assay. […] 20 μl of each compound solution are then transferred to the assay plate and the Ca2+ kinetic is measured to determine any intrinsic compound activity. […] The peak height of the Ca release related fluorescence signal (9-66) is used for the EC50. The EC50 of the modulation is calculated over a nonlinear regression with GraphPad Prism (Table 1).
Express your answer in nM, writing the number without its unit.

• O=C(Cn1nc(-c2ccccc2)cc1-c1ccccc1)N1CCN(c2cccnc2)CC1 [Example 7.02.02] = 428
• CCc1cc(-c2ccc(F)cc2)nn1CC(=O)N1CCN(c2cc(OC)ncn2)CC1 [Example 7.01.77] = 697
• CCc1cccc(-c2cc(CC)n(CC(=O)N3CCN(c4cc(OC)ncn4)CC3)n2)c1 [Example 7.01.129] = 212
• COc1ccc(-c2cc(C(C)C)n(CC(=O)N3CCN(c4ncccn4)CC3)n2)cc1C [Example 7.01.54] = 205
• COc1ccc(-c2cc(C(C)C)n(CC(=O)N3CCN(c4cc(C)ccn4)CC3)n2)cc1 [Example 7.01.21] = 111
• CC(C)c1cc(-c2ccc(F)cc2)nn1CC(=O)N1CCN(c2ncccn2)CC1 [Example 7.01.90] = 157
• O=C(Cn1nc(-c2ccccc2)cc1-c1ccccc1)N1CCN(c2ncccn2)CC1 [Example 7.02.01] = 35
• Cc1ccc(-c2cc(-c3ccccc3)n(CC(=O)N3CCN(c4ccccn4)CC3)n2)cc1F [Example 7.01.189] = 48

What measured EC50 goes with Cc1cccc(-c2cc(-c3ccccc3)n(CC(=O)N3CCN(c4ncccn4)CC3)n2)c1 [Example 7.01.165] ?
4

What measured EC50 goes with O=C(Cn1nc(-c2ccc(F)cc2)cc1-c1ccc(F)cc1)N1CCN(c2ccccn2)CC1 [Example 7.01.15] ?
30

What measured EC50 goes with Cc1cnc(-c2cc(-c3ccccc3)n(CC(=O)N3CCN(c4ccccn4)CC3)n2)cc1C [Example 7.01.136] ?
38

----------
# studyTarget: human recombinant mGluR5 (Homo sapiens)
# Construct: cultured with tetracycline, hygromycin and geneticin; tetracycline withdrawn 3-7 days before the assay
# measurementProtocol: positive modulation of mGluR5, calcium based FLIPR assay in HEK 293 cells
# measurementContext: HEK 293 cell line expressing human recombinant mGluR5; peak height of Ca release fluorescence signal after glutamate at approximately 5% basal stimulation; nonlinear regression
The compounds listed here are annotated with their log10(EC50).
Would you kindly interpret these values as log10 of EC50 expressed in nM?

* N#Cc1cccnc1N1CCN(C(=O)Cn2nc(-c3ccccc3)cc2-c2ccccc2)CC1 | 2.47

log10(EC50) of `Cc1cc(-c2cc(C(C)C)n(CC(=O)N3CCN(c4ncc(F)cn4)CC3)n2)ccc1F` on human recombinant mGluR5 (Homo sapiens)?
2.32

log10(EC50) of `COc1cnc(N2CCN(C(=O)Cn3nc(-c4cccc(C)c4)cc3-c3ccccc3)CC2)nc1` on human recombinant mGluR5 (Homo sapiens)?
0.95

log10(EC50) of `COc1cc(-c2cc(C(C)C)n(CC(=O)N3CCN(c4ncccn4)CC3)n2)ccc1F` on human recombinant mGluR5 (Homo sapiens)?
2.69

log10(EC50) of `COc1cc(-c2cc(-c3ccccc3)n(CC(=O)N3CCN(c4ccccn4)CC3)n2)ccc1F` on human recombinant mGluR5 (Homo sapiens)?
1.28

log10(EC50) of `COc1cc(N2CCN(C(=O)Cn3nc(-c4ccc(OC(F)F)cc4)cc3-c3ccccc3)CC2)ncn1` on human recombinant mGluR5 (Homo sapiens)?
1.00

log10(EC50) of `CCc1cc(-c2cccc(C)c2)nn1CC(=O)N1CCN(c2ncccn2)CC1` on human recombinant mGluR5 (Homo sapiens)?
2.13

log10(EC50) of `O=C(Cn1nc(-c2ccc(F)cn2)cc1-c1ccccc1)N1CCN(c2ncccn2)CC1` on human recombinant mGluR5 (Homo sapiens)?
1.91

log10(EC50) of `CCc1cc(-c2ccc(F)c(C)c2)nn1CC(=O)N1CCN(c2cc(OC)ncn2)CC1` on human recombinant mGluR5 (Homo sapiens)?
1.79

log10(EC50) of `Cc1nc(-c2cc(-c3ccccc3)n(CC(=O)N3CCN(c4ncccn4)CC3)n2)ccc1F` on human recombinant mGluR5 (Homo sapiens)?
1.04

log10(EC50) of `COc1ccc(-c2cc(-c3ccccc3)n(CC(=O)N3CCN(c4ncccn4)CC3)n2)cc1C` on human recombinant mGluR5 (Homo sapiens)?
1.38

log10(EC50) of `N#Cc1cccc(-c2cc(-c3ccccc3)nn2CC(=O)N2CCN(c3ncccn3)CC2)c1` on human recombinant mGluR5 (Homo sapiens)?
2.18

log10(EC50) of `Cc1cc(-c2cc(C(C)C)n(CC(=O)N3CCN(c4ccccn4)CC3)n2)ccc1F` on human recombinant mGluR5 (Homo sapiens)?
2.14

log10(EC50) of `Cc1cccc(-c2cc(-c3ccccc3)n(CC(=O)N3CCN(c4ccccn4)CC3)n2)c1` on human recombinant mGluR5 (Homo sapiens)?
0.90

log10(EC50) of `O=C(Cn1nc(-c2ccc(F)cc2)cc1-c1ccc(F)cn1)N1CCN(c2ncccn2)CC1` on human recombinant mGluR5 (Homo sapiens)?
2.40

log10(EC50) of `Cc1ccc(-c2cc(-c3ccccc3)n(CC(=O)N3CCN(c4ccccn4)CC3)n2)cc1C` on human recombinant mGluR5 (Homo sapiens)?
1.30

log10(EC50) of `CCc1cc(-c2ccc(F)cc2)nn1CC(=O)N1CCN(c2ncc(F)cn2)CC1` on human recombinant mGluR5 (Homo sapiens)?
2.86

log10(EC50) of `CCc1cc(-c2ccc(C)c(C)c2)nn1CC(=O)N1CCN(c2ccccn2)CC1` on human recombinant mGluR5 (Homo sapiens)?
2.29

log10(EC50) of `O=C(Cn1nc(-c2ccccc2)cc1-c1ccccc1)N1CCN(c2cc(C(F)(F)F)ccn2)CC1` on human recombinant mGluR5 (Homo sapiens)?
2.84

log10(EC50) of `CCCc1cc(-c2ccc(F)c(C)c2)nn1CC(=O)N1CCN(c2cc(OC)ncn2)CC1` on human recombinant mGluR5 (Homo sapiens)?
1.41

log10(EC50) of `CCCc1cc(-c2ccc(F)c(C)c2)nn1CC(=O)N1CCN(c2ccccn2)CC1` on human recombinant mGluR5 (Homo sapiens)?
1.72

log10(EC50) of `COCc1cc(-c2ccc(F)c(C)c2)nn1CC(=O)N1CCN(c2ncnc3[nH]cnc23)CC1` on human recombinant mGluR5 (Homo sapiens)?
2.26
